Overview of reported pIC50 across a group of molecules:
Target: EGFR L858R/C797S (Homo sapiens, UniProt P00533, C797S/L858R)
Sequence (P00533 25-1210 C797S/L858R): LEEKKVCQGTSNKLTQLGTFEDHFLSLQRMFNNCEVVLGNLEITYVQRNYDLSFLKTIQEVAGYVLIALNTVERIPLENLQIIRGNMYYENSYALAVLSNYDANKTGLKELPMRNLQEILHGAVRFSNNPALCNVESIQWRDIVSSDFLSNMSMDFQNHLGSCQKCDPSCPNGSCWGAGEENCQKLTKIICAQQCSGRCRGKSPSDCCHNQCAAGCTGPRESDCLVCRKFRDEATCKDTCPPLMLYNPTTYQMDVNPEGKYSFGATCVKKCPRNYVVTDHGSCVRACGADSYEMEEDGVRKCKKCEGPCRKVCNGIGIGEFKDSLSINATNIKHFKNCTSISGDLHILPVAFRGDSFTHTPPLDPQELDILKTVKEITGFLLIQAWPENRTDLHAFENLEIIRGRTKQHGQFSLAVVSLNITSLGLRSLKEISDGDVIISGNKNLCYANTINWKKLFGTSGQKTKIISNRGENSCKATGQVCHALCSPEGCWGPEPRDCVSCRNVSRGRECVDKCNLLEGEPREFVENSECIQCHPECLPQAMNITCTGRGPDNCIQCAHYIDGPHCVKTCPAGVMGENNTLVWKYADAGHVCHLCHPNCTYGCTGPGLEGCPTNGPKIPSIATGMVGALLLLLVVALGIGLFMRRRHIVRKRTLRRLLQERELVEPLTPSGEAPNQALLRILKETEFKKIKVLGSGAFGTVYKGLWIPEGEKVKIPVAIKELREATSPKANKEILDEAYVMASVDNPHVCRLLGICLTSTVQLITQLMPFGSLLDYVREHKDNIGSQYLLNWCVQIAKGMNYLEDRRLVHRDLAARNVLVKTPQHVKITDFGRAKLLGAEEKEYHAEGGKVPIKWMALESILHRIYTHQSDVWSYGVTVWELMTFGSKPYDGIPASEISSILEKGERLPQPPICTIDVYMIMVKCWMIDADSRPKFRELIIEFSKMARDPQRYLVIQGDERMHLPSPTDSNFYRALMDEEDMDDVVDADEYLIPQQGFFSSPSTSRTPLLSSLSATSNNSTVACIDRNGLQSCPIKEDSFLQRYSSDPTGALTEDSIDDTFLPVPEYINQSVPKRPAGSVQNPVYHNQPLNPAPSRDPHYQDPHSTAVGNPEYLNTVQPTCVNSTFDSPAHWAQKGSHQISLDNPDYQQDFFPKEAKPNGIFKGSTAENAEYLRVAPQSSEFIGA
Assay: Biochemical EGFR kinase assay (Lance Ultra TR-FRET), double mutant L858R/C797S
Details: ATP at Km; read-out: IC50 L858R/C797S, Km ATP
Scale note: pIC50 = -log10(concentration in M).

Before answering, review these 5 worked examples.
CN(C)C[C@H]1CC[C@@H](Nc2cc(Nc3ccnc(-c4cnn(S(=O)(=O)C5CC5)c4)n3)ncc2-c2ccc(C(C)(C)O)cn2)CC1; 9.70
CN1CCC(Oc2ccc(-c3cnc(Nc4ccnc(-c5cnn(S(=O)(=O)C6CC6)c5)n4)cc3NC3CCN(CCF)CC3)nc2)CC1; 9.22
CN(C)CCOc1ccc(-c2cnc(Nc3ccnc(-c4cnn(S(=O)(=O)C5CC5)c4)n3)cc2N[C@H]2CC[C@@](C)(O)CC2)nc1; 10.00
C[C@]1(O)CC[C@@H](Nc2cc(Nc3ccnc(-c4cnn(S(=O)(=O)C5CC5)c4)n3)ncc2-c2cc(OCCN3CCOCC3)ccn2)CC1; 9.30
CN(C)CC1CCC(Nc2cc(Nc3ccnc(-c4cnn(S(=O)(=O)C5CC5)c4)n3)ncc2-c2ccc(C(C)(O)C(F)(F)F)cn2)CC1 (stereo not drawn); 9.52

Next:
Prompt line: Give the observed pIC50 of CN(C)S(=O)(=O)c1ccc(-c2cnc(Nc3ccnc(-c4cnn(S(=O)(=O)C5CC5)c4)n3)cc2N[C@H]2CC[C@@H](CO)CC2)nc1 for EGFR L858R/C797S (Homo sapiens, UniProt P00533, C797S/L858R).
Response line: 8.96

----------
Overview of reported IC50 across a group of compounds:
Molecular target: EGFR L858R/T790M/C797S (Homo sapiens, UniProt P00533, C797S/L858R/T790M)
Sequence (P00533 25-1210 T790M/C797S/L858R): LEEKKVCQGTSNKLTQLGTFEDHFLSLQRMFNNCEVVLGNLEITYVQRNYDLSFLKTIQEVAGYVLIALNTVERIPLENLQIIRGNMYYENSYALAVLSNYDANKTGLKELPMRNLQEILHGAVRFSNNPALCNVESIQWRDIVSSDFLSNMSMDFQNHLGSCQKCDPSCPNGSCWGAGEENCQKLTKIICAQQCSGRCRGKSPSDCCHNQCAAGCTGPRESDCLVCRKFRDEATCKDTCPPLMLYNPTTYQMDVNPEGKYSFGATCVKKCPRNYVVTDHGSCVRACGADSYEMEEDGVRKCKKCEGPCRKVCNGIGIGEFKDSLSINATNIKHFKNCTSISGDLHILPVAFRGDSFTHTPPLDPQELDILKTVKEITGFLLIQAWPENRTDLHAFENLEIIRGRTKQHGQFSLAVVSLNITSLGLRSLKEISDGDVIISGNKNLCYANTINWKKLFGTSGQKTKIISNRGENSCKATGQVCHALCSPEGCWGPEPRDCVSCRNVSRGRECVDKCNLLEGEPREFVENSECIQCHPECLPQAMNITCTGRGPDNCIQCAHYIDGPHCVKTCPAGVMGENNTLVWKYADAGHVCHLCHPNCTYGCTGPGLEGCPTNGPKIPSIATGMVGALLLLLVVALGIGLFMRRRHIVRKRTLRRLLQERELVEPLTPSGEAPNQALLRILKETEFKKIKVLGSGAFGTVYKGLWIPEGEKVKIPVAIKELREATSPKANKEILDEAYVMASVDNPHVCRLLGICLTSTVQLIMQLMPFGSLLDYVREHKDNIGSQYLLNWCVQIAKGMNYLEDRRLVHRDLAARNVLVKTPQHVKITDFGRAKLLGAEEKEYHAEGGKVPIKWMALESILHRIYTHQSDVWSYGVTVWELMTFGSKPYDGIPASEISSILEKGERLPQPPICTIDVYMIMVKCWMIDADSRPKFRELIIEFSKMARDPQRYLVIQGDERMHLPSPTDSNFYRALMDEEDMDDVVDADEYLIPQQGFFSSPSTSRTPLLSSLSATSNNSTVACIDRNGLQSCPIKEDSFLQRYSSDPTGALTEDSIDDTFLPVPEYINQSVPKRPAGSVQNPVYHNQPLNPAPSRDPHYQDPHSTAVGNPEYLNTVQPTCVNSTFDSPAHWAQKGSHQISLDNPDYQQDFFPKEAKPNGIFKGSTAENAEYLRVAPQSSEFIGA
Assay: Biochemical EGFR kinase assay (Lance Ultra TR-FRET), triple mutant L858R/T790M/C797S
Settings: Km ATP; read-out: IC50 L858R/T790M/C797S (nM) Km ATP
Hi! Could you send only the number? It should be in nM, unit omitted.

Before answering, review these 5 worked examples.
C[C@]1(O)CC[C@@H](Nc2cc(Nc3ccnc(-c4cnn(S(=O)(=O)C5CC5)c4)n3)ncc2-c2cc(N3CCOCC3)ccn2)CC1 [Example 48]; 0.3
C[C@]1(O)CC[C@@H](Nc2cc(Nc3ccnc(-c4cnn(S(=O)(=O)C5CC5)c4)n3)ncc2-c2ccc(CN3CCC(F)(F)CC3)cn2)CC1 [Example 33]; 1.7
CN(C)c1cnc(-c2cnc(Nc3ccnc(-c4cnn(S(=O)(=O)C5CC5)c4)n3)cc2N[C@H]2CC[C@@](C)(O)CC2)nc1 [Example 39]; 0.4
FC(F)Cn1cc(-c2nccc(Nc3cc(N[C@H]4CC[C@@H](F)CC4)c(-c4ccc(N5CCOCC5)cn4)cn3)n2)cn1 [Example 137]; 0.2
C[C@]1(O)CC[C@@H](Nc2cc(Nc3ccnc(-c4cnn(S(=O)(=O)C5CC5)c4)n3)ncc2-c2ccc(N3CCOCC3)cn2)CC1 [Example 38]; 0.2

Next:
Prompt line: Please give the documented IC50 of CN(C)CCOc1cnc(-c2cnc(Nc3ccnc(-c4cnn(S(=O)(=O)C5CC5)c4)n3)cc2NC2CCC(C)(O)CC2)cn1 (stereo not drawn) [Example 115]
Response line: 0.1

----------
Target: EGFR L858R/C797S (Homo sapiens, UniProt P00533, C797S/L858R)
Assay: Biochemical EGFR kinase assay (Lance Ultra TR-FRET), double mutant L858R/C797S
Conditions: ATP at Km; read-out: IC50 L858R/C797S, Km ATP
Overview of reported pIC50 across a group of molecules:
Scale note: pIC50 = -log10(concentration in M).

CN1CCN(S(=O)(=O)c2ccc(-c3cnc(Nc4ccnc(-c5cnn(S(=O)(=O)C6CC6)c5)n4)cc3N[C@H]3CC[C@@](C)(O)CC3)nc2)CC1 [Example 188]; 9.10
CN1CCN(S(=O)(=O)c2ccc(-c3cnc(Nc4ccnc(-c5cnn(S(=O)(=O)C6CC6)c5)n4)cc3N[C@H]3CC[C@@H](CO)CC3)nc2)CC1 [Example 189]; 9.05
CC(C)(O)[C@H]1CC[C@@H](Nc2cc(Nc3ccnc(-c4cnn(S(=O)(=O)C5CC5)c4)n3)ncc2-c2cc(OCCN3CCOCC3)ccn2)CC1 [Example 213]; 8.85
O=S(=O)(C1CC1)n1cc(-c2nccc(Nc3cc(N[C@H]4CC[C@@H](CO)CC4)c(-c4cccc(F)n4)cn3)n2)cn1 [Example 272]; 9.00

Next:
Prompt line: Give the observed pIC50 of CC(F)(F)c1ccc(-c2cnc(Nc3ccnc(-c4cnn(S(=O)(=O)C5CC5)c4)n3)cc2N[C@H]2CC[C@@](C)(O)CC2)nc1 [Example 292] for EGFR L858R/C797S (Homo sapiens, UniProt P00533, C797S/L858R).
Response line: 8.36

----------
Molecular target: EGFR L858R/C797S (Homo sapiens, UniProt P00533, C797S/L858R)
Test: Biochemical EGFR kinase assay (Lance Ultra TR-FRET), double mutant L858R/C797S
Conditions: IC50 L858R/C797S (nM) 100 μM ATP, 100 μM ATP
Overview of reported log10(IC50) across a group of molecules:
Use the decimal logarithm of IC50 (nM).

Before answering, review these 8 worked examples.
CC(C)(O)[C@H]1CC[C@@H](Nc2cc(Nc3ccnc(-c4cnn(S(=O)(=O)C5CC5)c4)n3)ncc2-c2ccc(CN3CCC(O)CC3)cn2)CC1; 0.28
C[C@]1(O)CC[C@@H](Nc2cc(Nc3ccnc(-c4cnn(S(=O)(=O)C5CC5)c4)n3)ncc2-c2cc(N3CCOCC3)ccn2)CC1; 1.92
CC(=O)c1cccc(-c2cnc(Nc3ccnc(-c4cnn(S(=O)(=O)C5CC5)c4)n3)cc2N[C@H]2CC[C@@](C)(O)CC2)n1; 2.05
CN1CCN(c2ccc(-c3cnc(Nc4ccnc(-c5cnn(S(=O)(=O)C6CC6)c5)n4)cc3N[C@H]3CC[C@@H](CO)CC3)nc2)CC1; -0.70
C[C@]1(O)CC[C@@H](Nc2cc(Nc3ccnc(-c4cnn(S(=O)(=O)C5CC5)c4)n3)ncc2-c2cnc(N3CCOCC3)cn2)CC1; 0.85
C[C@]1(O)CC[C@@H](Nc2cc(Nc3ccnc(-c4cnn(S(=O)(=O)C5CC5)c4)n3)ncc2-c2ccc(N3CC(F)(F)C3)nn2)CC1; 1.09
C[C@]1(O)CC[C@@H](Nc2cc(Nc3ccnc(-c4cnn(S(=O)(=O)C5CC5)c4)n3)ncc2-c2ccc(N3CCOCC3)cn2)CC1; 0.63
C[C@]1(O)CC[C@@H](Nc2cc(Nc3ccnc(-c4cnn(S(=O)(=O)C5CC5)c4)n3)ncc2-c2cc(CN3CCOCC3)ccn2)CC1; 0.26

Prompt line: Please give the documented log10(IC50) of CN1CCN(c2ccnc(-c3cnc(Nc4ccnc(-c5cnn(S(=O)(=O)C6CC6)c5)n4)cc3N[C@H]3CC[C@@](C)(O)CC3)c2)CC1
Response line: 1.75

Prompt line: Please give the documented log10(IC50) of CN1CCN(c2ccc(-c3cnc(Nc4ccnc(-c5cnn(S(=O)(=O)C6CC6)c5)n4)cc3N[C@H]3CC[C@@](C)(O)CC3)nc2)CC1
Response line: -0.40

Prompt line: Please give the documented log10(IC50) of C[C@]1(O)CC[C@@H](Nc2cc(Nc3ccnc(-c4cnn(S(=O)(=O)C5CC5)c4)n3)ncc2-c2ccc(F)cn2)CC1
Response line: 0.81

Prompt line: Please give the documented log10(IC50) of O=S(=O)(C1CC1)n1cc(-c2nccc(Nc3cc(N[C@H]4CC[C@@H](CO)CC4)c(-c4cc(N5CCC(F)(F)CC5)ccn4)cn3)n2)cn1
Response line: 1.40

Prompt line: Please give the documented log10(IC50) of O=S(=O)(C1CC1)n1cc(-c2nccc(Nc3cc(N[C@H]4CC[C@@H](NCCF)CC4)c(-c4ccccn4)cn3)n2)cn1
Response line: 1.20

Prompt line: Please give the documented log10(IC50) of CN(C)CCOc1cnc(-c2cnc(Nc3ccnc(-c4cnn(S(=O)(=O)C5CC5)c4)n3)cc2N[C@H]2CC[C@@H](CO)CC2)cn1
Response line: -0.52

----------
Molecular target: EGFR del19/C797S (Homo sapiens, UniProt P00533, C797S/DEL746-750)
Sequence (P00533 with tags, fused parts or gaps DEL746-750/C797S): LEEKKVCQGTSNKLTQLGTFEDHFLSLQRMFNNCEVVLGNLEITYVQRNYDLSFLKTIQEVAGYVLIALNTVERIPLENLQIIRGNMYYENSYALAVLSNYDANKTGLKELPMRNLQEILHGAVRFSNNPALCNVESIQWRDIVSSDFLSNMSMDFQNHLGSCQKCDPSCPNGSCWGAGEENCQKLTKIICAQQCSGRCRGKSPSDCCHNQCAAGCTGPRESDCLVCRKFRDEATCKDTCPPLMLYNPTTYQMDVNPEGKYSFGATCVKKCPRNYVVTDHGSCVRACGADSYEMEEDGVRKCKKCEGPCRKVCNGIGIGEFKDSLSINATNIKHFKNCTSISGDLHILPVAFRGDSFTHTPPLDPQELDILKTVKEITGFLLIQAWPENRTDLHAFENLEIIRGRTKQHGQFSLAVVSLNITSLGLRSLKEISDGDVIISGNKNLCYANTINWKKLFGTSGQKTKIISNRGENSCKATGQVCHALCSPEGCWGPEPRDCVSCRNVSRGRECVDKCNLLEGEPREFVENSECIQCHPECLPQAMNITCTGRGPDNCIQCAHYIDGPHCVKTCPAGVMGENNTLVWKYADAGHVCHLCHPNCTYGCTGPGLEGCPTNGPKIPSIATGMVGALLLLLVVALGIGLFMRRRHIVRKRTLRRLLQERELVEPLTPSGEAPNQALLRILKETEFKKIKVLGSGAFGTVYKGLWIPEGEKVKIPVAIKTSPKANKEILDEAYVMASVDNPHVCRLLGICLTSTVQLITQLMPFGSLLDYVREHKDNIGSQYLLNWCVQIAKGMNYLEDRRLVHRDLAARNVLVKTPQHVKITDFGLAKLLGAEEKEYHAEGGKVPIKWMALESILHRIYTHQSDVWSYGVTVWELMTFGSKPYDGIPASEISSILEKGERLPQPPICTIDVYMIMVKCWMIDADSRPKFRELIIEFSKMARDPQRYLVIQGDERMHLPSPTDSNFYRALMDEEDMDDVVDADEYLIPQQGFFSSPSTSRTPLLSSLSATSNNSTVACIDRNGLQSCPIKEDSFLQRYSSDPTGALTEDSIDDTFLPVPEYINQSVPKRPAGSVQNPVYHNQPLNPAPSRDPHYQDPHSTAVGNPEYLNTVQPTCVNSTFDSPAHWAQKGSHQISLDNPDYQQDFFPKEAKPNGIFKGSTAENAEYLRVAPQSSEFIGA
Experiment: Biochemical EGFR kinase assay (Lance Ultra TR-FRET), double mutant del19/C797S
Conditions: Km ATP; read-out: IC50 del19/C797S (nM) Km ATP
Overview of reported IC50 across a group of compounds:
Hi! Could you send only the number? It should be in nM, unit omitted.

CC1(O)CCC(Nc2cc(Nc3ccnc(-c4cnn(S(=O)(=O)C5CC5)c4)n3)ncc2-c2cnc(OC3CCOC3)cn2)CC1 (stereo not drawn) [Example 149]; 1
O=S(=O)(C1CC1)n1cc(-c2nccc(Nc3cc(N[C@H]4CC[C@@H](CO)CC4)c(-c4cnc(OC(F)F)cn4)cn3)n2)cn1 [Example 129]; 12.6

Prompt line: Please give the documented IC50 of CN(C)CCOc1cnc(-c2cnc(Nc3ccnc(-c4cnn(S(=O)(=O)C5CC5)c4)n3)cc2N[C@H]2CC[C@@H](CO)CC2)cn1 [Example 116]
Response line: 0.1
